Catalogue of melting point values

# Compound, Value measured
data = [
    ("Cc1c(CNC(C)C)ncn1C(c1ccccc1)(c1ccccc1)c1ccccc1", "150 to 154 °C"),
    ("CC(CCc1cc2cccnc2n(-c2cccc(N(C)C)c2)c1=O)c1ccncc1 (stereo not given)", "148 to 154 °C"),
    ("FC(F)(F)c1cccc(N2CCC(N=Cc3ccccn3)=N2)c1", "156 °C"),
]

Inquiry: Endpoint output: melting point of CC(C)(C)OC(=O)NC(C)(COCc1ccccc1)C(=O)O (stereo not given) . Value?
Reply text: 112 to 114 °C

Inquiry: How about O=C1C=CC(O)(c2cnc3ccccc3c2)C=C1 ?
Reply text: 183 to 184 °C

Inquiry: How about CCc1c(-c2ccccc2)c2c(COCCN3CCCCC3)cc3c(O)ccc1n32 ?
Reply text: 196 to 198 °C

Inquiry: How about OCC1Cc2c([nH]c3ccccc23)CN1C(=S)S (stereo not given) ?
Reply text: 225 to 227 °C

###

Experimental endpoint: melting point

Use these answered entries as a reference point.
# Compound, Value measured
data = [
    ("O=C(O)C(=O)c1ccc(OCCOC23CC4CC(CC(C4)C2)C3)cc1", "107 to 109 °C"),
    ("CCC12CCC3=C(CC(C)c4cc(OC)ccc43)C1CCC21OCCO1 (stereo not given)", "122 to 124 °C"),
]

Inquiry: Endpoint output: melting point of CC(=O)OC1CSC(Oc2ccc(-c3ccncc3)cc2)C(OC(C)=O)C1OC(C)=O (stereo not given) . Value?
Reply text: 180 °C

Inquiry: How about Cc1[nH]n(C2CCCC2)c2nc(-c3cccc4cccnc34)nc(=O)c1-2 ?
Reply text: 242 to 244 °C

Inquiry: How about Cn1nc(C(F)(F)F)c(CN2C(=O)C3(COc4cc5c(cc43)OCO5)c3ccccc32)c1Cl (stereo not given) ?
Reply text: 180 to 182 °C

###

Catalogue of melting point values

Use these answered entries as a reference point.
# Compound, melting point
data = [
    ("NC(=O)C1CN(c2c(F)cc3c(=O)c(C(=O)O)cn(C4CC4)c3c2F)C1", "295 to 298 °C"),
    ("O=C(OCc1ccccc1)c1cc(OCc2ccccc2)c(OCc2ccccc2)cn1", "117 °C"),
    ("CC(C)(C)NS(=O)(=O)c1ccccc1C(=O)CF", "126 °C"),
    ("CCCCOCCOc1ccc(-c2ccc(N3CCCCCC3)c(C=CC(=O)O)c2)cc1", "135 to 138 °C"),
    ("COc1cc(OC)nc(Oc2cccc(Oc3nc(OC)cc(OC)n3)c2C)n1", "140 °C"),
]

Inquiry: Endpoint output: melting point of O=C(O)c1cn(C2CCC2)c2c(F)c(F)c(F)cc2c1=O . Value?
Reply text: 192 to 194 °C

Inquiry: How about O=C(O)c1cccnc1C1=NC(=O)C2(CCCCC2)N1 ?
Reply text: 186 to 189 °C

Inquiry: How about CC(C)(O)c1cnc2c(NC(=O)c3c(Cl)cccc3Cl)cccc2c1 ?
Reply text: 187 to 189 °C

Inquiry: How about Cc1cccc(C(C)C)c1NC(=O)NC1(c2cccs2)CCCCC1 ?
Reply text: 230 to 232 °C

Inquiry: How about CN1C(=O)C(C(=O)NCCCCCC(=O)O)S(=O)(=O)c2ccccc21 (stereo not given) ?
Reply text: 132 to 134 °C

Inquiry: How about CCCC12CCC(c3ccc(C#N)c(F)c3)(CC1)CC2 ?
Reply text: 63 °C

Inquiry: How about O=C(c1ccc(Cl)cc1)C(Cc1nc[nH]n1)c1ccc(Cl)cc1Cl (stereo not given) ?
Reply text: 109 to 111 °C

Inquiry: How about Cc1c(NC(=O)c2ccc(-c3ccc(F)cc3)c(F)c2)ccc2cc(CN3CCCCC3)cnc12 ?
Reply text: 161 to 162 °C

Inquiry: How about Cc1ccn(-c2ccc(S(N)(=O)=O)cc2)c1-c1ccc(F)cc1 ?
Reply text: 187 to 188 °C

Inquiry: How about COc1cc(C2CCN(CCO)CC2)ccc1Nc1ncc2ccc(-c3cccc(S(=O)(=O)NC(C)(C)C)c3)n2n1 ?
Reply text: 220 to 224 °C

Inquiry: How about COC[C@@H]1CCCN1S(=O)(=O)c1ccc2c(c1)C(=O)C1=NCCCN12 ?
Reply text: 138 to 141 °C

Inquiry: How about CSC(=S)NN=Cc1nc(Cc2ccccc2)[nH]c1C ?
Reply text: 207 to 210 °C

###

Experimental endpoint: melting point

Use these answered entries as a reference point.
# Compound, melting point
measured = [
    ("O=C(CCc1cccc2c1NC(=O)CO2)CCc1cccc2c1NC(=O)CO2", "183 to 185 °C"),
    ("CC(C)(N)Cc1c[nH]c2ccc(Br)cc12", "150 to 155 °C"),
    ("CCCCCCCCCCNc1c(Nc2ccc(CCCNC[C@H](O)COc3cccc4[nH]c5ccccc5c34)cc2)c(=O)c1=O", "225 °C"),
    ("CCCN(c1ncncc1C#N)n1ccc2ccccc21", "129 to 130 °C"),
    ("COc1ccc(-c2cn3ccc(C)cc3n2)cc1", "157 to 160 °C"),
]

Then there is this compound:
Inquiry: Endpoint output: melting point of COC1(C)CCc2cc(OC(=O)c3ccccc3)c(C)c(C)c2O1 (stereo unspecified) . Value?
Reply text: 102 °C

###

Experimental endpoint: melting point

Use these answered entries as a reference point.
# Compound, melting point
rows = [
    ("O=C(c1ccc(-c2nc(C(=O)O)co2)cc1)c1cccnc1", "281 to 282 °C"),
    ("O=c1oc(=O)n(-c2ccccc2)c2ncccc12", "196 to 198 °C"),
    ("NC(=O)c1ccc(F)c2c1CC([N+](=O)[O-])CO2 (stereo unspecified)", "184 to 186 °C"),
    ("O=S(=O)(c1ccc(Br)cc1)N1CCN(CC2CCN(c3ccncc3)CC2)CC1", "179 to 180 °C"),
    ("COc1cc(C)c(C(=O)c2c(Cl)cccc2Cl)cc1Br", "159 °C"),
    ("CS(=O)(=O)Nc1ccc(OC[C@@H]2CO2)cc1", "106 to 108 °C"),
    ("Cc1cccc(-c2nc(CCOc3ccc(/C=C/C=O)cc3)c(C)o2)c1", "110 to 111 °C"),
    ("CN1C(=O)N2C(=NC1(C)C)N(C(=O)NC1CCCCC1)c1ccccc12", "114 to 116 °C"),
]

Then there is this compound:
Inquiry: Endpoint output: melting point of CC(C)c1ccc2nc3ccc(C(=O)NCCCCn4ccnc4)cn3c(=O)c2c1 . Value?
Reply text: 165 to 167 °C

###

Catalogue of melting point values

# Molecule, melting point
records = [
    ("CC(C)c1cc(NC(=O)N2CCN(c3ccnc(-c4cccc(F)c4F)n3)CC2)nnc1Cl", "192 to 193 °C"),
    ("O=C(O)CCCCCNC(=O)C1Cc2ccccc2N1S(=O)(=O)c1ccc(-c2cccc(C(F)(F)F)c2)cc1 (centres undefined)", "50 °C"),
    ("Cc1ccc(S(=O)(=O)c2nsc3nc4ccccc4n23)cc1", "231 to 234 °C"),
    ("O=C1c2c(O)ccc(O)c2-c2nn(CCCNCCO)c3ccc(NCCNCCO)c1c23", "159 to 163 °C"),
    ("COC(=O)c1cc(I)cc(C)c1O", "82 to 84 °C"),
    ("CC1(C)CC(C)(C)CC(O)(C#Cc2ccccn2)C1", "126 to 127 °C"),
    ("CC#CC=NNC(=O)c1cc(OC)cc(Oc2cccc(C(F)(F)F)c2)n1", "147 to 148 °C"),
    ("COc1ccc2c(C(=O)c3ccc(OC4CCCC4N4CCCCC4)cc3)c(-c3ccc(OCCN4CCCC4)cc3)sc2c1 (centres undefined)", "68 to 72 °C"),
]

Inquiry: Endpoint output: melting point of ClCCOc1ccc2ccccc2c1 . Value?
Reply text: 94 °C

###

Catalogue of melting point values

Use these answered entries as a reference point.
# Molecule, Experimental endpoint, Value measured
measured = [
    ("COc1ccc2c(c1)CCN(CCc1ccc(NC=O)cc1)C2C (stereo not given)", "melting point", "93 to 96 °C"),
    ("Cc1c(NC(=O)c2ccc(-c3ccc(F)cc3)cc2)ccc2cc(C(c3ccccc3)N3CCCC3)cnc12 (stereo not given)", "melting point", "192 to 195 °C"),
    ("O=c1cc2c(nn1-c1ccc(Cl)cc1)-c1cc(Br)sc1SCC2", "melting point", "148 to 151 °C"),
    ("CCCCCN(CCCOC)C(=O)C(CCC(=O)O)CS(=O)(=O)c1ccc2ccccc2c1 (stereo not given)", "melting point", "79 to 82 °C"),
    ("CCN(CC)CC=CC(=O)Nc1cc2c(Nc3ccc(F)c(Cl)c3)ncnc2cc1OC1CCCC1", "melting point", "105 °C"),
]

Inquiry: Endpoint output: melting point of C=Cc1cnc(C)c(O)c1CS . Value?
Reply text: 198 to 200 °C

Inquiry: How about COCCc1cc(O)ccc1N ?
Reply text: 82 °C
